From: paper PMC3963460

- MEASUREMENT_TARGET: PKC rat-brain isozyme mixture
- ASSAY_EXPLANATION: Protein kinase C isozyme mixture competitive binding assay with
- EXPERIMENTAL_PARAMETERS: read-out: Kd of (^3H)PDBu; measured under these assay conditions
READOUT_NAME: Kd (nM)
The reply should be a number in nM, with the unit left off.

So, CCCC(=O)OC1C(C)C2(O)C(C=C(CO)CC3(O)C(=O)C(C)=CC32)C2C(C)(C)C12OC(=O)CCC (stereo not shown) [(^3H)PDBu, (^3H)phorbol dibutyrate] ? Its Kd was 1.55
